Origin of the recorded values: patent US20070020327A1

Assayed target: HLA-A*1101 (human)
Assay method text: competition with 125I-labelled standard peptide for purified HLA, gel filtration
Assay conditions: scale: ratio
Readout label: binding affinity ratio

# annotated cases, reported binding affinity ratio shown
Binder	Experimental value
WATEDTMTK (modifications not checked) [… (PAP, position 226)]	0.0002
TLVFRHGDR (modifications not checked) [… (PAP, position 39)]	0.0002
PAELTDAVK (modifications not checked) [… (PSA, position 125)]	0.0002
PSKAWGEVKR (modifications not checked) [… (PSM, position 721)]	0.0002
TLRGAVEPDR (modifications not checked) [… (PSM, position 361)]	0.0002

1 = PANEYAYRR (modifications not checked) [… (PSM, position 273)]
2 = VLTAAHCIR (modifications not checked) [… (PSA, position 56)]
3 = SLYESWTKK (modifications not checked) [… (PSM, position 492)]
Order the items by recorded binding affinity ratio; the first position goes to the largest value. Please write the labels in the order that was asked for.
3, 2, 1
